Just for reference, PubChem BioAssay (NCI) is where these values come from.

Tested on: SK-OV-3 ovarian
procedure_details: NCI-60 one-dose screen, 48 h (100 = growth as untreated, 0 = no growth, -100 = all killed)
condition_info: 10 µM unless noted
This is part of a sample that, as a whole, favours compounds with a hit. Of some 83,000 tested, about 20% had one in any assay.
The threshold is 60%. Values of growth beneath it are tagged TRUE; values meeting or exceeding it are tagged FALSE.

{"compound_smiles": "CCc1ccc(Oc2c(-c3ccc(OCCc4cccc(C(F)(F)F)c4)cc3O)n[nH]c2C(F)(F)F)cc1", "category": "FALSE"}
{"compound_smiles": "Cc1[nH]c(C(=O)Nc2ccc(C(=O)N3CCNCC3)cc2OC(C)C)c(Cl)c1Cl", "category": "FALSE"}
{"compound_smiles": "Cc1nc(/N=C(\\N)NC(=O)Nc2ccccc2Cl)sc1C", "category": "TRUE"}
{"compound_smiles": "COc1ccc(-c2cc(-c3ccc(Cl)cc3)c(C#N)c(=O)n2CCCCCC(=O)Nc2ccccc2N)cc1", "category": "FALSE"}
{"compound_smiles": "C#C[C@]1(O)CC[C@H]2[C@@H]3CC=C4c5sc(Nc6ccccc6)nc5CC[C@]4(C)[C@H]3CC[C@@]21C", "category": "TRUE"}
{"compound_smiles": "Cc1ccc(-c2nc3c(c(-c4ccccc4)nn3-c3ccccc3)c(-c3ccc(O)cc3)c2C#N)cc1", "category": "FALSE"}

* * *

Tested on: SNB-75 CNS
procedure_details: NCI-60 one-dose screen, 48 h (100 = growth as untreated, 0 = no growth, -100 = all killed)
condition_info: 10 µM unless noted
This is part of a sample that, as a whole, favours compounds with a hit. Of some 83,000 tested, about 20% had one in any assay.
Each record here notes measured growth.

{"compound": "CCCCC[C@H](O)C/C=C1/C(=O)C=C[C@@H]1C/C=C\\CCCC(=O)O", "growth, %": 79.1}
{"compound": "CCCCCCNC(=O)Oc1ccc(/C(=C(\\C)c2ccc(Cl)cc2)c2ccc(OCCCN(C)C)cc2)cc1", "growth, %": 79.1}
{"compound": "O=c1c2cccc(Cl)c2sc2c(NCCCNCCO)nc3ccccc3c12", "growth, %": 51.9}
{"compound": "Cc1ccc(C(=O)NCCNc2nccc(-c3c(-c4cccc(F)c4)nc4sccn34)n2)cc1", "growth, %": -1.5}
{"compound": "O=C1/C(=C/c2ccccc2[N+](=O)[O-])Oc2ccc(O)c(O)c21", "growth, %": 65.9}
{"compound": "CN1C(=O)N(C)C2Nn3c(s/c(=C\\c4ccccc4)c3=O)=NC21 (stereo not drawn)", "growth, %": 71.4}
{"compound": "c1ccc(CO[C@H]2CO[C@H]3[C@@H]2OC[C@@H]3Oc2ccc(Nc3ncnc4ccsc34)cc2)cc1", "growth, %": 87.5}
{"compound": "Cc1ccccc1C(=O)NN", "growth, %": 91.1}
{"compound": "c1ccc(-c2nc3sc(-c4ccccc4)cn3n2)cc1", "growth, %": 84.3}
{"compound": "COc1ccc2[nH]c(-c3ccccc3)c(/C=C(\\C#N)S(=O)(=O)c3ccccc3)c2c1", "growth, %": 48.1}
{"compound": "COc1ccc(C2=Nn3c(nnc3-c3cc(Cl)cc(Cl)c3Cl)SC2)cc1", "growth, %": 22.7}
{"compound": "COc1cc(C(=O)c2cnc(-c3c[nH]c4cccc(C)c34)[nH]2)cc(OC)c1OC", "growth, %": 20.3}
{"compound": "O=C(Cc1ccc(F)c(Cl)c1)Nc1cc(C2(C(F)(F)F)CC2)nn1Cc1ccccc1", "growth, %": -21.6}

* * *

Test system: MDA-MB-435 melanoma
procedure_details: NCI-60 one-dose screen, 48 h (100 = growth as untreated, 0 = no growth, -100 = all killed)
condition_info: 10 µM unless noted
The panel holds about 83,000 compounds, 20% with a hit somewhere; the sample as a whole holds those more often.

{"compound": "COc1cc(C(=O)/C=C/c2c(Cl)nc3sccn23)cc(OC)c1OC", "growth (%)": 72.5}
{"compound": "NCCNc1nc2ccccc2c2c(=O)c3cccc(F)c3sc12", "growth (%)": 58.5}
{"compound": "Cn1cc(-c2cc3ncnc(Nc4ccc(CC(=O)Nc5cc(C(C)(C)C)on5)cc4)c3s2)cn1", "growth (%)": 40.7}
{"compound": "COc1cc(/C=C/c2ccccc2)cc(OC)c1", "growth (%)": 103}
{"compound": "CN(C(=O)NCc1cccc(F)c1Cl)[C@H](COC(=O)Nc1cc2ccccc2cn1)CC(O)CO (stereo partly drawn)", "growth (%)": 104}
{"compound": "COc1ccc2nc(NC(=O)c3cccnc3Nc3ccc(S(N)(=O)=O)cc3)sc2c1", "growth (%)": 91.5}
{"compound": "C=C1CC[C@H](C(C)C)[C@@H]2[C@H]1[C@H]1CC(=C)[C@@H](O)CC[C@@](C)(O)[C@@H]2O1", "growth (%)": 96.8}
{"compound": "Cc1ccc2sc3c(NCCN)nc4ccccc4c3c(=O)c2c1", "growth (%)": 46.2}
{"compound": "CCOC(=O)c1cn2ncnc(Oc3ccc(NC(=O)NCCN4CCOCC4)c(Cl)c3)c2c1C", "growth (%)": 97.3}
{"compound": "COc1ccc2cc(C(C)C(=O)Nc3ccc(-c4n[nH]c(=S)n4C4CCCCC4)cc3)ccc2c1 (stereo not drawn)", "growth (%)": 62.4}
{"compound": "C=C1C(=O)O[C@H]2[C@H]1CC/C(COC(=O)CCC(=O)NCCOCCOCC(=O)Nc1ccc(OC)c(C(N)=O)c1O)=C\\CC[C@@]1(C)O[C@@H]21", "growth (%)": 97.8}
{"compound": "Cc1nc2ccccc2n1CC1C(=O)NC(=O)NC1=O", "growth (%)": 101}
{"compound": "C[N+]1=C(/C=C/c2ccc(O)c3ncccc23)C(C)(C)c2ccccc21", "growth (%)": 59.6}
{"compound": "C=C(C)C1CCC2(C)OC2C1 (stereo not drawn)", "growth (%)": 98.2}
{"compound": "COc1ccc(C(=O)C(C)C)c2ccccc12", "growth (%)": 97.9}
{"compound": "CC/C=C\\C[C@@H]1C/C=C2/C(=O)C=C[C@H]2C/C=C\\CCCC(=O)O1", "growth (%)": -59.1}
{"compound": "CN(C)CC#Cc1ccc2ncc(C#N)c(Nc3ccc(F)c(Cl)c3)c2c1", "growth (%)": 65.3}
{"compound": "COc1cc2cc(Oc3ccc(NC(=O)Nc4ccc(F)c(C(F)(F)F)c4)cc3)c(C)nc2cc1OCCN1CCOCC1", "growth (%)": 16.5}
{"compound": "Cc1c(C(=O)N[C@@H](Cc2ccccc2)C(=O)C(=O)NCc2ccc(F)cc2)[nH]c2ccccc2c1=O", "growth (%)": 101}
{"compound": "O=c1c2cc(F)ccc2sc2c(N3CCCCC3)nc3ccccc3c12", "growth (%)": 107}
{"compound": "CN1C(=O)CNC(=O)[C@H](NC(=O)c2nc3ccccc3cc2O)CSSC[C@H]1C(=O)NCCCc1nc2ccccc2cc1O", "growth (%)": 44}
{"compound": "C=C1C(=O)O[C@H]2[C@H]1CC/C(COC(=O)CCSSCCC(=O)OC/C1=C/CC[C@@]3(C)O[C@H]3[C@H]3OC(=O)C(=C)[C@@H]3CC1)=C\\CC[C@@]1(C)O[C@@H]21", "growth (%)": 10.8}
{"compound": "O=C(/C=C/c1ccc([N+](=O)[O-])o1)NNC(=O)c1cc2ccccc2cc1O", "growth (%)": -13.3}
{"compound": "Cc1nc2ccccc2c(/C=C/c2ccc(Cl)cc2)c1C(=O)/C=C/c1ccc(C(F)(F)F)cc1", "growth (%)": -95.4}
{"compound": "O=C(N/N=C/[C@H](O)[C@@H](O)[C@@H](O)[C@H](O)CO)c1ccc(NC(=O)c2cccnc2)cc1", "growth (%)": 106}
{"compound": "COc1cc(/C=C/C(=O)/C=C/c2cc(OC)c3c(c2OC)OCO3)c(OC)c2c1OCO2", "growth (%)": 11.5}
{"compound": "FC(F)(F)c1cc(Nc2ccc3c(OCCCN4CCOCC4)cccc3n2)ccc1Cl", "growth (%)": 62.7}
{"compound": "CN(C)c1ccc(/C=N\\Nc2cc(=O)[nH]c3ccc(Cl)cc23)cc1", "growth (%)": 105}

* * *

Test system: T-47D breast
procedure_details: NCI-60 one-dose screen, 48 h (100 = growth as untreated, 0 = no growth, -100 = all killed)
condition_info: 10 µM unless noted
About 83,000 compounds went through this panel and 20% of them were active in at least one assay; those are over-represented in the sample as a whole.
The threshold is 60%. Values of growth beneath it are tagged Met; values meeting or exceeding it are tagged Not met.

{"compound_smiles": "Cc1ccc(-c2nc(N3CCN(CC(=O)Nc4ccc(Cl)c(C(F)(F)F)c4)CC3)c3ccccc3n2)cc1", "category": "Not met"}
{"compound_smiles": "CN1CCN(c2ccc(-c3cc4c(Nc5ccc(F)c(Cl)c5)ncnn4c3)cc2)CC1", "category": "Not met"}
{"compound_smiles": "COc1c(B(O)O)cc(F)cc1-c1nc2ccc3[nH]ncc3c2c2c1CCCC2", "category": "Met"}
{"compound_smiles": "Clc1ccc(C(/C=C/c2sc(Cl)nc2Cl)=N/Nc2cc(Cl)cc(Cl)c2)cc1", "category": "Not met"}
{"compound_smiles": "CN1CCN(c2ccc(-c3cc4c(Nc5ccc(F)c(Cl)c5)ncnn4c3)cn2)CC1", "category": "Not met"}
{"compound_smiles": "O=C(CCc1nnc(-c2c(Cl)cccc2Cl)o1)c1nc2ccccc2[nH]1", "category": "Met"}
{"compound_smiles": "O=[N+]([O-])c1ccc(Cl)c(-c2cc(CCCCO)on2)c1", "category": "Not met"}
